Tested on: Staphylococcus aureus
Assay: Antibacterial activity against methicillin sensitive Staphylococcus aureus NRS107 assessed as reduction in microbial growth by CLSI based broth microdilution method
Format: functional
Recorded MIC by entry
experimental-endpoint: MIC (µg/mL)

[[record]]
molecule = "O=C(Nc1ncc([N+](=O)[O-])s1)C1CN(c2ccc(Cl)cc2)N(c2ccc(Cl)cc2)C1=O (centres undefined)"
experimental_endpoint = "MIC"
endpoint_value = 64

[[record]]
molecule = "CC(=O)NC[C@H]1CN(c2ccc(N3CCOCC3)c(F)c2)C(=O)O1"
experimental_endpoint = "MIC"
endpoint_value = 0.5

[[record]]
molecule = "N#Cc1cnc(NC(=O)C2CN(c3cccc(Cl)c3)N(c3cccc(Cl)c3)C2=O)s1 (centres undefined)"
experimental_endpoint = "MIC"
endpoint_value = 8

[[record]]
molecule = "O=C(Nc1ncc([N+](=O)[O-])s1)C1CN(c2cccc(Cl)c2)N(c2cccc(Cl)c2)C1=O (centres undefined)"
experimental_endpoint = "MIC"
endpoint_value = 2


====

Listed compounds paired with reported MIC
Tested on: Clostridioides difficile
Test: Antibacterial activity against Clostridioides difficile NR-32889 assessed as reduction in microbial growth incubated for 48 hrs by broth microdilution method
Format: functional
experimental-endpoint: MIC (µg/mL)

[[record]]
compound = "CCc1c(Cl)c(O)c(Cl)c(O)c1C(=O)O[C@H]1[C@H](O)[C@H](OC)[C@H](OC/C2=C\\C=C\\C[C@H](O)/C(C)=C/[C@H](CC)[C@@H](O[C@@H]3OC(C)(C)[C@@H](OC(=O)C(C)C)[C@H](O)[C@@H]3O)/C(C)=C/C(C)=C/C[C@@H]([C@@H](C)O)OC2=O)O[C@@H]1C"
unit_abbrev = "µg/mL"
endpoint_value = 0.03

[[record]]
compound = "CN[C@H](CC(C)C)C(=O)N[C@H]1C(=O)N[C@@H](CC(N)=O)C(=O)N[C@H]2C(=O)N[C@H]3C(=O)N[C@H](C(=O)N[C@H](C(=O)O)c4cc(O)cc(O)c4-c4cc3ccc4O)[C@H](O)c3ccc(c(Cl)c3)Oc3cc2cc(c3O[C@@H]2O[C@H](CO)[C@@H](O)[C@H](O)[C@H]2O[C@H]2C[C@](C)(N)[C@H](O)[C@H](C)O2)Oc2ccc(cc2Cl)[C@H]1O"
unit_abbrev = "µg/mL"
endpoint_value = 2

[[record]]
compound = "O=C(Nc1ncc([N+](=O)[O-])s1)C1CN(c2cccc(Cl)c2)N(c2cccc(Cl)c2)C1=O (centres undefined)"
unit_abbrev = "µg/mL"
endpoint_value = 0.5

[[record]]
compound = "O=C(Nc1ncc([N+](=O)[O-])s1)C1CN(c2ccc(Cl)cc2)N(c2ccc(Cl)cc2)C1=O (centres undefined)"
unit_abbrev = "µg/mL"
endpoint_value = 0.25


====

Below: a set of entries, each annotated with reported MIC.
System: Clostridioides difficile
Test: Antibacterial activity against Clostridioides difficile NR-32895 assessed as reduction in microbial growth incubated for 48 hrs by broth microdilution method
Format: functional
experimental-endpoint: MIC (µg/mL)

[[record]]
compound = "CCc1c(Cl)c(O)c(Cl)c(O)c1C(=O)O[C@H]1[C@H](O)[C@H](OC)[C@H](OC/C2=C\\C=C\\C[C@H](O)/C(C)=C/[C@H](CC)[C@@H](O[C@@H]3OC(C)(C)[C@@H](OC(=O)C(C)C)[C@H](O)[C@@H]3O)/C(C)=C/C(C)=C/C[C@@H]([C@@H](C)O)OC2=O)O[C@@H]1C [FIDAXOMICIN]"
experimental_endpoint = "MIC"
endpoint_value = 0.03

[[record]]
compound = "O=C(Nc1ncc([N+](=O)[O-])s1)C1CN(c2ccc(Cl)cc2)N(c2ccc(Cl)cc2)C1=O (centres undefined)"
experimental_endpoint = "MIC"
endpoint_value = 1

[[record]]
compound = "O=C(Nc1ncc([N+](=O)[O-])s1)C1CN(c2cccc(Cl)c2)N(c2cccc(Cl)c2)C1=O (centres undefined)"
experimental_endpoint = "MIC"
endpoint_value = 0.5

[[record]]
compound = "CN[C@H](CC(C)C)C(=O)N[C@H]1C(=O)N[C@@H](CC(N)=O)C(=O)N[C@H]2C(=O)N[C@H]3C(=O)N[C@H](C(=O)N[C@H](C(=O)O)c4cc(O)cc(O)c4-c4cc3ccc4O)[C@H](O)c3ccc(c(Cl)c3)Oc3cc2cc(c3O[C@@H]2O[C@H](CO)[C@@H](O)[C@H](O)[C@H]2O[C@H]2C[C@](C)(N)[C@H](O)[C@H](C)O2)Oc2ccc(cc2Cl)[C@H]1O [VANCOMYCIN]"
experimental_endpoint = "MIC"
endpoint_value = 2


====

System: Lactobacillus crispatus
Assay: Antibacterial activity against Lactobacillus crispatus HM 103 assessed as reduction in microbial growth incubated for 48 hrs by broth microdilution method
Type: functional
experimental-endpoint: MIC (µg/mL)

[[record]]
compound = "O=C(Nc1ncc([N+](=O)[O-])s1)C1CN(c2cccc(Cl)c2)N(c2cccc(Cl)c2)C1=O (centres undefined)"
experimental_endpoint = "MIC"
unit_abbrev = "µg/mL"
comparison_sign = ">"
endpoint_value = 64

[[record]]
compound = "CCc1c(Cl)c(O)c(Cl)c(O)c1C(=O)O[C@H]1[C@H](O)[C@H](OC)[C@H](OC/C2=C\\C=C\\C[C@H](O)/C(C)=C/[C@H](CC)[C@@H](O[C@@H]3OC(C)(C)[C@@H](OC(=O)C(C)C)[C@H](O)[C@@H]3O)/C(C)=C/C(C)=C/C[C@@H]([C@@H](C)O)OC2=O)O[C@@H]1C [FIDAXOMICIN]"
experimental_endpoint = "MIC"
unit_abbrev = "µg/mL"
comparison_sign = "="
endpoint_value = 0.5

[[record]]
compound = "CN[C@H](CC(C)C)C(=O)N[C@H]1C(=O)N[C@@H](CC(N)=O)C(=O)N[C@H]2C(=O)N[C@H]3C(=O)N[C@H](C(=O)N[C@H](C(=O)O)c4cc(O)cc(O)c4-c4cc3ccc4O)[C@H](O)c3ccc(c(Cl)c3)Oc3cc2cc(c3O[C@@H]2O[C@H](CO)[C@@H](O)[C@H](O)[C@H]2O[C@H]2C[C@](C)(N)[C@H](O)[C@H](C)O2)Oc2ccc(cc2Cl)[C@H]1O [VANCOMYCIN]"
experimental_endpoint = "MIC"
unit_abbrev = "µg/mL"
comparison_sign = "="
endpoint_value = 1

[[record]]
compound = "O=C(Nc1ncc([N+](=O)[O-])s1)C1CN(c2ccc(Cl)cc2)N(c2ccc(Cl)cc2)C1=O (centres undefined)"
experimental_endpoint = "MIC"
unit_abbrev = "µg/mL"
comparison_sign = ">"
endpoint_value = 64


====

Test system: Escherichia coli
Test: Antibacterial activity against Escherichia coli harboring tolC deletion mutant assessed as reduction in microbial growth incubated for 16 hrs by serial dilution method
Assay type: functional
experimental-endpoint: MIC

[[record]]
compound = "Cc1csc(NC(=O)C2CN(c3cccc(Cl)c3)N(c3cccc(Cl)c3)C2=O)n1 (centres undefined)"
endpoint_value = "40 µM"

[[record]]
compound = "O=C(Nc1ncc(Cl)s1)C1CN(c2cccc(Cl)c2)N(c2cccc(Cl)c2)C1=O (centres undefined)"
endpoint_value = "> 40 µM"

[[record]]
compound = "O=C(Nc1ncc([N+](=O)[O-])s1)C1CN(c2ccc(Cl)cc2)N(c2ccc(Cl)cc2)C1=O (centres undefined)"
endpoint_value = "> 40 µM"

[[record]]
compound = "N#Cc1ccc(NC(=O)C2CN(c3cccc(Cl)c3)N(c3cccc(Cl)c3)C2=O)cn1 (centres undefined)"
endpoint_value = "> 40 µM"

[[record]]
compound = "O=C(Nc1ccc(-c2cn[nH]c2)cc1)C1CN(c2cccc(Cl)c2)N(c2cccc(Cl)c2)C1=O (centres undefined)"
endpoint_value = "> 40 µM"

[[record]]
compound = "CN1C(=O)C(C(=O)NC2CCSC2=O)CN1c1cccc(Cl)c1 (centres undefined)"
endpoint_value = "> 40 µM"

[[record]]
compound = "O=C(Nc1ccc2[nH]ncc2c1)C1CN(c2cccc(Cl)c2)N(c2cccc(Cl)c2)C1=O (centres undefined)"
endpoint_value = "23 µM"

[[record]]
compound = "O=C(Nc1ccsc1)C1CN(c2cccc(Cl)c2)N(c2cccc(Cl)c2)C1=O (centres undefined)"
endpoint_value = "> 40 µM"

[[record]]
compound = "O=C1/C(=N\\O)CN(c2cccc(Cl)c2)N1c1cccc(Cl)c1"
endpoint_value = "4 µg/mL"


====

Experiment: Drug uptake in Escherichia coli harboring tolC deletion mutant at 10 uM incubated for 30 mins by LC analysis
Assay type: ADME
Conditions: 0.5 h
// returns NOT MET unless Drug uptake is strictly below 600 nM, in which case MET

[[record]]
compound = "O=C(Nc1ncc([N+](=O)[O-])s1)C1CN(c2cccc(Cl)c2)N(c2cccc(Cl)c2)C1=O (stereo not given)"
qualitative_label = "MET"

[[record]]
compound = "O=C(Nc1nc2ccccc2s1)C1CN(c2cccc(Cl)c2)N(c2cccc(Cl)c2)C1=O (stereo not given)"
qualitative_label = "MET"

[[record]]
compound = "N#Cc1cnc(NC(=O)C2CN(c3cccc(Cl)c3)N(c3cccc(Cl)c3)C2=O)s1 (stereo not given)"
qualitative_label = "NOT MET"

[[record]]
compound = "O=C1NC(=O)c2cc(NC(=O)C3CN(c4cccc(Cl)c4)N(c4cccc(Cl)c4)C3=O)ccc21 (stereo not given)"
qualitative_label = "NOT MET"

[[record]]
compound = "O=C(Nc1ccc(-c2cn[nH]c2)cc1)C1CN(c2cccc(Cl)c2)N(c2cccc(Cl)c2)C1=O (stereo not given)"
qualitative_label = "MET"


Hello, the source for this data is ChEMBL document CHEMBL5537113, in case you need it.
